assay: Ratio of drug level in hypothalamus to serum in Sprague-Dawley rat at 10 mg/kg, po administered as single dose by LC-MS/MS analysis; type: ADME, organism-based
Measurement type: Kp

INSERT INTO measurements (smiles_data, result) VALUES
  ('c1ccc(N2CCN(CCCN3CCN(c4ccccn4)CC3)CC2)nc1', 4.6);

---

assay: Cmax in Sprague-Dawley rat serum at 10 mg/kg, iv administered as single dose by LC-MS/MS analysis; type: ADME, organism-based; design: dose 10 mg/kg, route intravenous
Measurement type: Cmax (ng/mL)

INSERT INTO measurements (smiles_data, result) VALUES
  ('c1ccc(N2CCN(CCCN3CCN(c4ccccn4)CC3)CC2)nc1', 520);
